test system: A2780 cells; assay: Viability assay in A2780 (Cell Titer Glo); assay type: cell-based, human; conditions: Homo sapiens; A2780 cells; read-out: A2780 Cell prolif. EC50
ENDPOINT NAME: EC50

Solved entries:
# input compound: CC(=O)Nc1cn2nc(-c3cnc(N)c(C(=O)O)c3)ccc2n1 [Example 136] ; wanted: its EC50
# output < 25 µM

# input Which EC50 reading was recorded for the compound CC(=O)Nc1nc2ccc(-c3cnc(N)c(C(F)(F)F)c3)cn2c1-c1ccccc1 [Example 12] ?
# output < 25 µM

# input Entry under review: CC(=O)Nc1nc2ccc(-c3cnc(N)c(C(F)(F)F)c3)cn2c1C#Cc1ccc(C)cc1 [Example 127] . Reported EC50?
# output < 10 µM

More entries:
# input Param item = CC(C)(C)OC(=O)N1CCC[C@@H]1C(=O)Nc1cn2nc(-c3cnc(N)c(C(F)(F)F)c3)ccc2n1 [Example 179] ; retrieve measured EC50.
# output < 25 µM

# input Need EC50, item COc1cc(-c2ccc3nc(NC(C)=O)c(Br)n3c2)cnc1N [Example 8]
# output < 10 µM

# input Given the entry CC(=O)Nc1cn2cc(-c3cnc(N)c(OC4CNC4)n3)ccc2n1 [Example 149] , report its measured EC50.
# output < 25 µM

* * *

system: A2780 cells; experiment: Viability assay in A2780 (Cell Titer Glo); assay type: cell-based, human; details: Homo sapiens; A2780 cells, 72 hrs; read-out: A2780 Cell prolif. EC50
pEC50: −log10 of the molar value.
ENDPOINT NAME: pEC50

A selection of reference data follows.
# input Could you share what pEC50 was measured for Nc1ncc(-c2ccc3nc(NC(=O)CCCN4CCCCC4)sc3c2)cc1C(F)(F)F , tested on A2780 cells?
# output > 5.00

# input Record CC(=O)Nc1nc2ccc(-c3cnc(N)c(OCC(F)(F)F)n3)cc2s1 : what is its pEC50 with A2780 cells?
# output > 6.00

# input Notebook entry, A2780 cells assay: pEC50 of Nc1ccc(-c2ccc3nc(NC(=O)CCCN4CCCCC4)sc3c2)cn1 = ?
# output > 5.00

# input Please provide the recorded pEC50 for Nc1ncc(-c2ccc3nc(NC(=O)CCCN4CCOCC4)sc3c2)cn1 , tested on A2780 cells.
# output > 5.00

# input API: value(readout= pEC50, system= A2780 cells, query= CC(=O)Nc1nc2ccc(-c3cnc(N)cc3C)cc2s1 )
# output > 4.60

# input Lab request: please report pEC50 under test system A2780 cells for CC(=O)Nc1nc2cc(C)c(-c3cnc(N)c(C(F)(F)F)c3)cc2s1
# output > 4.60

# input State its pEC50 on A2780 cells: Nc1ccc(-c2ccc3nc(NC(=O)CCCN4CCOCC4)sc3c2)cn1
# output > 4.60

# input Form field: pEC50 recorded for CC(=O)Nc1nc2ccc(-c3cnc(N)c(C(F)(F)F)c3)c(F)c2s1 with A2780 cells (enter value)
# output > 5.00

Next:
# input # returns recorded pEC50 (system: A2780 cells) for CC(=O)Nc1nc2c(F)cc(-c3cnc(N)c(C(F)(F)F)c3)cc2s1
# output > 4.60

* * *

system: A2780 cells; experiment: Viability assay in A2780 (Cell Titer Glo); assay type: cell-based, human; conditions: Homo sapiens; A2780 cells; read-out: A2780 Cell prolif. EC50
This section presents compounds with their documented EC50 values.

Please review the entries below; each comes with its answer.
# input Find the measured EC50: item CC(=O)Nc1cn2cc(-c3cnc(N)c(F)c3)ccc2n1 , target or system A2780 cells.
# output < 25 µM

# input Give recorded EC50 with A2780 cells for the following compound: CC(=O)Nc1cn2cc(-c3cnc(N)c(Oc4ccc(F)cc4)n3)ccc2n1
# output < 1 µM

# input Recall the recorded EC50 for CC(=O)Nc1nc2ccc(-c3cnc(N)c(C(F)(F)F)c3)cn2c1C(N)=O with A2780 cells and state it.
# output < 10 µM

Continuing:
# input Report EC50 for NC(=O)N1CCC[C@H]1C(=O)Nc1cn2cc(-c3cnc(N)c(C(F)(F)F)c3)ccc2n1 tested on A2780 cells.
# output < 10 µM

# input Return EC50 measured with A2780 cells given this compound: Nc1ncc(-c2ccc3nc(NC(=O)C4CNC4)cn3n2)cc1Cl
# output < 25 µM
